biological target: Cathepsin B (Homo sapiens, UniProt P07858); assay: Competitive inhibition of human recombinant cathepsin B exopeptidase activity using Abz-Gly-Ile-Val-Arg-Ala-Lys(Dnp)-OH substrate assessed as inhibition constant for enzyme-inhibitor complex
pKi: −log10 of the molar value.
Items are presented alongside their recorded pKi.
result-type: pKi

INSERT INTO assay_data (structure_smiles_string, result_type, recorded_number) VALUES
  ('O=C(O)c1cc([N+](=O)[O-])c2cccnc2c1O', 'pKi', 3.66),
  ('CN(Cc1ccccc1)c1ccc([N+](=O)[O-])c2cccnc12', 'pKi', 3.71),
  ('O=C(O)[C@@H]1CCCC[C@@H]1NCc1cc([N+](=O)[O-])c2cccnc2c1O', 'pKi', 3.60);
